Where a name gives a salt, the structure may show the parent alone.
observation type: melting point

Fc1ccc2c(C3=CCN(CC4CCc5ccccc5O4)CC3)c[nH]c2c1 (centres unmarked): 160 to 161 °C
COc1cccc2c1OC(CN1CC=C(c3c[nH]c4ccc(F)cc34)CC1)CC2 (centres unmarked): 177 to 180 °C (dec.)
C1=C(c2c[nH]c3ccccc23)CCN(CC2CCc3ccccc3O2)C1 (centres unmarked): 171 to 173 °C
COc1cccc2c1OC(CN1CC=C(c3c[nH]c4ccccc34)CC1)C=C2 (centres unmarked): 198 to 200 °C (dec.)
COc1cccc2c1OC(CN1CC=C(c3c[nH]c4ccc(F)cc34)CC1)C=C2 (centres unmarked): 189 to 191 °C (dec.)

Query block: Write down melting point measured for item COc1cccc2c1OC(CN1CC=C(c3c[nH]c4cc(F)ccc34)CC1)CC2 (centres unmarked)
Result block: > 170 °C (dec.)

Query block: Write down melting point measured for item Fc1ccc2[nH]c(CC3CCN(CC4CCc5ccccc5O4)CC3)cc2c1 (centres unmarked) (as salt: oxalate) (hydrate or solvate)
Result block: 187 to 190 °C

Query block: Write down melting point measured for item Fc1ccc2[nH]cc(C3=CCN(CC4CCc5ccccc5O4)CC3)c2c1 (centres unmarked)
Result block: 172 to 175 °C
